Experiment: growth inhibition of WT strain, primary screen, mitochondrial fusion inhibitor project, WT and mutant strains, chemical genetic (AID 1362)
Conditions: mitochondrial fusion phenotypic screen, WT strain, growth inhibition; at 10 µM
About 4,000 (2.1%) of roughly 190,000 compounds were called active. No stated cut-off is given here; in the data, active means inhibition above about 58%; inactive means the rest, inconclusive results apart; tested in S. cerevisiae. The full list was thinned out, with actives kept by preference.
Outcomes: Yes = active, No = inactive

1) CCc1ccccc1NC(=S)N(CCN1CCCCCC1)Cc1ccco1 No
2) O=C(Nc1ccccc1)Nc1nc2ccccc2s1 No
3) O=C(Nc1ccc2ccccc2c1)Nc1ccc2snnc2c1 Yes
4) COc1ccc(C(=O)NCC(=O)N/N=C/c2ccc([N+](=O)[O-])s2)cc1OC No

====

Test: growth inhibition of WT strain, primary screen, mitochondrial fusion inhibitor project, WT and mutant strains, chemical genetic (AID 1362)
Conditions: mitochondrial fusion phenotypic screen, WT strain, growth inhibition; at 10 µM; stronger effect = higher value
Among all 190,000 compounds or so, about 4,000 (2.1%) were called active. This is one part of a sample in which actives are shown more often than they occur.
We begin with a simple list: items and their reported inhibition.

COMPOUND	inhibition [%]
CCOC(=O)N1CCN(Cc2nc3ccc([N+](=O)[O-])cc3c(=O)n2-c2cccc(OC)c2)CC1	-16.2
CC12CCC(C(=O)N(c3cccc(Cl)c3)C1=O)C2(C)C (configuration not stated)	15.3
O=C(c1ccc(Cl)c([N+](=O)[O-])c1)N1CCN(c2ccccc2)CC1	65.8
S=c1[nH]nc(COc2ccccc2)n1-c1ccccc1	-7.14
O=[N+]([O-])c1ccccc1N/N=C1\CCc2ccccc21	-0.84
CCC(C(=O)OCC(=O)Nc1c(Cl)cc(Cl)cc1Cl)c1ccccc1 (configuration not stated)	11.1
CC1=NN(c2cccc(Cl)c2)C(=O)C12CC(C)=C(C)CS2 (configuration not stated)	71.2
CCC(C(=O)OCC(=O)Nc1ccc(C(=O)Nc2ccc(OC)cc2)cc1)c1ccccc1 (configuration not stated)	12.9
Cc1ccc(OCc2n[nH]c(=S)n2-c2ccccc2)cc1	11.4
Cc1ccccc1CN1C[C@@H]2C[C@@H](c3ccc4nsnc4c3)N3CCC[C@@]23C1=O	7.94
NC(=O)c1ccc(NC(=O)COC(=O)c2c3c(nc4ccccc24)/C(=C\c2ccc4c(c2)OCO4)CCC3)cc1	62.3
Cc1nc(C)c(C(=O)N(c2ccc(C)c(C)c2)C(C(=O)NCc2ccco2)c2ccccc2)s1 (configuration not stated)	16.8

====

Experiment: growth inhibition of WT strain, primary screen, mitochondrial fusion inhibitor project, WT and mutant strains, chemical genetic (AID 1362)
Details: mitochondrial fusion phenotypic screen, mutant strain inhibition; at 10 µM
Screen size: about 190,000 compounds; about 4,000 (2.1%) were called active. The sample holds actives, similar compounds and a random draw of the others, so the mix is not that of the screen.
Listed compounds paired with reported inhibition
PROPERTY_LABEL: inhibition (%)

COMPOUND	NUMERIC_RESULT
CCn1c(-c2ccncc2)n[nH]c1=S	13.5
COc1ccc(S(=O)(=O)N(C)CC(=O)N2CCCC2)cc1Cl	5.49
CC(C)(C)c1ccc(Oc2ccc(N)cc2)cc1	38
c1ccc2sc(NN=C3CCCC3)nc2c1	-13.6
COc1ccc(NC(=O)CCNS(=O)(=O)c2ccc3c(c2)c(=O)n(C)c(=O)n3C)cc1OC	2.95
C=CCn1c(=NC(=O)c2cccs2)sc2cc(NC(C)=O)ccc21	5.07
CC1=NNC(=O)C1CCC(=O)N/N=C\c1ccc(Cl)c(Cl)c1 (configuration not stated)	2.78
CC(c1ccco1)N(C(=O)c1ccc(S(=O)(=O)N2CCCCC2)cc1)c1ccccn1 (configuration not stated)	-4.51
COC(=O)N/N=C/c1cn(CCCOc2ccc(C)cc2)c2ccccc12	-14.3
Cc1nc2ccccc2cc1OCc1ccc(F)cc1	-4.03
CCC(C)(C)c1ccc(Oc2ccc(NC(=O)COC(=O)C3=COCCO3)cc2)cc1	33.7
Cc1ccc(OCC(=O)N/N=C/c2ccncc2)cc1	-0.34
O=C(OCC(=O)c1cccs1)C1=COCCO1	20.9
O=C1/C(=C/c2cccs2)CCC1C1CCCC1 (configuration not stated)	37.2
CCCc1cc(-c2n[nH]c(=S)n2Cc2ccccc2)cs1	36.1
Cc1cc(C)n(-c2nc(SCC(=O)N3CCCC3)c3c4c(sc3n2)CCCC4)n1	38.4
Cc1nc2ccccc2cc1C(=O)N/N=C/c1ccc([N+](=O)[O-])cc1	20.7
Cc1ccc(/C=N/NC(=O)COc2ccccc2-c2ccccc2)cc1	20.8
O=C(COc1ccccc1[N+](=O)[O-])NC1CC1	8.16
CCOC(=O)N/N=C/c1cn(Cc2ccccc2Cl)c2ccccc12	-14.2
Cc1noc(COc2ccccc2OCC(O)CNC(C)(C)C)n1 (configuration not stated)	-4.87
CCc1nc2ccccc2c(C(=O)NCc2ccc(OC)cc2)c1C	-13.1
O=C(c1ccc(CSc2ccccc2)cc1)N1CCCCCC1	19.1
CCOC(=O)C1CCCN(C(=O)c2cccc(S(=O)(=O)N3CCOCC3)c2)C1 (configuration not stated)	-18.7
Cc1nc(N2CCOCC2)c2c(C)c(C(=O)Nc3ccc(C(F)(F)F)cc3)sc2n1	-8.5
CC1CC(C)(C)NC(=S)N1CCC(=O)N1CCN(Cc2ccccc2)CC1 (configuration not stated)	-4.03
CCCc1cc(-c2n[nH]c(=S)n2CC)c2ccccc2n1	-14.6
[O-][n+]1c2c(nn1-c1ccc(Cl)c(Cl)c1)-c1nonc1CC2	6.81
CNC(=S)N/N=C/c1cn(Cc2ccc(C)cc2)c2ccccc12	61.2
Cc1nc(N2CCN(c3ccccn3)CC2)c2c(C)c(C(=O)Nc3ccc(F)cc3)sc2n1	11.3
COC(=O)Cc1nc2ccccc2[nH]1	14
Cc1nc(SCC(=O)Nc2cc(C)on2)c2c3c(sc2n1)CCCC3	31.1
CSc1cc(C)[nH]c(=O)n1	-7.11
O=C(C1CC1)N1CCN=C1SCc1ccc(Cl)cc1	20.3
CCOc1cc(N2CCOCC2)c(OCC)cc1NC(=O)C1=NN(c2cccc(C)c2)C(=O)CC1	16.4
c1ccc2c(CSCc3nc4ccccc4[nH]3)cccc2c1	69.3
CN(C)c1ccc(C=NCCc2ccc(S(N)(=O)=O)cc2)cc1	-12.7
COCCNc1nc(-n2nc(C)cc2C)nc2sc3c(c12)CCCC3	0
Cc1ccsc1C(=O)N/N=C/c1ccc([N+](=O)[O-])cc1	-7.32
CCOc1cccc(/C=C/c2ccc3ccccc3n2)c1OC(C)=O	25.6
CCC1(C)Cc2c(sc3nc(SC)nc(N)c23)CO1 (configuration not stated)	-10.7
CC1CC(=S)Nc2ccccc2N1Cc1ccccc1 (configuration not stated)	26.3

====

Experiment: growth inhibition of WT strain, primary screen, mitochondrial fusion inhibitor project, WT and mutant strains, chemical genetic (AID 1362)
Settings: mitochondrial fusion phenotypic screen, WT strain, growth inhibition; at 10 µM; stronger effect = higher value
Out of some 190,000 compounds screened, about 4,000 (2.1%) were called active. This excerpt belongs to a sample that is enriched for actives.

MOLECULE	inhibition (%)
O=C(Nc1ccc2nc3n(c(=O)c2c1)CCCCC3)c1ccccc1Cl	-2.99
CCC(=O)Nc1nc2ccccc2n1Cc1ccccc1C	32.7
S=c1[nH]nc(-c2ccccc2)n1/N=C/c1c[nH]c2ccccc12	1.16
Cc1nnnn1/C(=C\c1ccccc1)C(=O)OCC(=O)N1CC2(C)CC1CC(C)(C)C2 (stereo unspecified)	60.3
Cc1cc2ccccc2n1CCC(=O)O	7.54
CC1(C)C2CCC1(C)C(OC(=O)CCn1ccnc1)C2 (stereo unspecified)	-4.41
CCOc1cccc(/C=N/N2C(=O)CSC2=S)c1O	-2
O=C(N/N=C/c1ccc([N+](=O)[O-])cc1)c1c[nH]c2ccccc12	-8.33
O=C(CCCN1C(=O)/C(=C/c2ccco2)SC1=S)Nc1ccccc1	1.95
O=C(O)c1cccc(NC(=S)N/N=C/c2c[nH]c3ccccc23)c1	-10.2
C=CCn1c(N)c(C(=O)OCC(C)C)c2nc3ccccc3nc21	66.3
CC(C)Cn1c(N)c(C(=O)NCc2cccs2)c2nc3ccccc3nc21	3.94
C=CCn1c(N)c(S(=O)(=O)c2cccs2)c2nc3ccccc3nc21	-1.23
Cc1ccc(NC(=O)OCc2cncs2)cc1	-3.01
CCOC(=O)N1CCN(C(=S)Nc2ccc(C)cc2C)CC1	7.78
COC(=O)C1=C(C)N(c2ccc(Br)cc2)C(=O)/C1=C\c1ccco1	13.1

====

The entries below come with measured inhibition values attached.
Test: growth inhibition of WT strain, primary screen, mitochondrial fusion inhibitor project, WT and mutant strains, chemical genetic (AID 1362)
Details: mitochondrial fusion phenotypic screen, WT strain, growth inhibition; at 10 µM; stronger effect = higher value
Among all 190,000 compounds or so, about 4,000 (2.1%) were called active. Only a selection was taken, and actives are over-represented in it overall.
PROPERTY_LABEL: inhibition (%)

COMPOUND	NUMERIC_RESULT
CCOC(=O)C1=C(c2ccc(OC)cc2)C(=O)c2ccccc2C1=O	68.3
Cc1nnc(SC(C(=O)Nc2cc(Cl)cc(Cl)c2)c2ccccc2)[nH]c1=O (centres undefined)	1.45
CN(C)C(=O)c1nc2ccc(Cl)cn2c1CN1CCN(c2ncccn2)CC1	-14.1
CCC(C)(C)NC(=O)CN(C(=O)CCC(=O)Nc1cc(C)ccn1)c1ccc2c(c1)OCCO2	3.35
CCCCc1cc2c(s1)CCCC/C2=N/O	63.2
CC(=O)N(CCCN(C)C)c1nc2ccc(C)cc2s1	-12.7
Cc1cccc(NC(=S)N2CCCC(c3nc4ccccc4[nH]3)C2)c1 (centres undefined)	-10.4
CC(=O)Nc1ccc(CN2CCN(Cc3ccc(F)c(F)c3)C(CCO)C2)cc1 (centres undefined)	1.99
CCCC1CCC(=NNC(=S)NCCc2ccccc2)CC1 (centres undefined)	66.8
CCN(CC)C(=O)Oc1ccc(OC(=O)N(CC)CC)cc1	-3.56
Cc1nc2ccccc2nc(C)c1=NOCc1ccc(Cl)cc1Cl	67.9
Cc1ccc(C)c(-n2ccnc2SCC(N)=O)c1	5.62
CCCc1noc2c1/C(=N\O)CCC2	-2.57
CCOc1ccc(/C=C(/NC(=O)c2ccccc2)C(=O)NCCC(=O)O)cc1	-9.33
O=C(Nc1nnc(-c2ccccc2)o1)c1cc(-c2cccs2)nc2ccccc12	70.4
Oc1c(CN2CCN(c3ccc(F)cc3)CC2)cc(Cl)c2cccnc12	-1.47
CCOC(=O)c1ccc[n+](CC(=O)Nc2ccccc2OC(F)F)c1	-21.9
CCOC(=O)c1ccccc1NS(=O)(=O)c1ccc(OC)cc1	38
Fc1ccc(N2CCN(Cc3cnc(Oc4ccc(Br)cc4)s3)CC2)cc1	59
CCCCCC(O)c1cccc(OCc2ccc3ccccc3n2)c1 (centres undefined)	77.5
COCCNc1nc2nonc2nc1N1CCCC1c1nccs1 (centres undefined)	17.4
CCN(CC)CCOC(=O)c1ccc(NC(=O)CNC(=O)c2ccccc2)cc1	19.4
O=C1c2ccccc2S(=O)(=O)N1CC(O)Cn1c2ccccc2c2ccccc21 (centres undefined)	84.5
Clc1ccc(Nc2nc(-c3cccs3)cs2)nc1	78.8
O=C(NC1CC1)c1ccc(-c2ccccc2)cc1	-18.3
CCCCCCOC(=O)NCC(O)c1ccccc1 (centres undefined)	-6.62
CC[N+]1(CC)CC2=Cc3ccccc3CC2C1 (centres undefined)	0.67
O=C(NCC1COc2ccccc2O1)C1(c2ccccc2)CCCC1 (centres undefined)	13.2
Cc1cccc(NC(=O)c2nnn(-c3cccc(C(F)(F)F)c3)c2N)c1	-4.08
Cc1cc(O)c(NC(=O)c2ccc(C)c([N+](=O)[O-])c2)cc1C	-6.28
COc1ccc(N2CCN(Cc3ccc(Br)s3)CC2)cc1	20.2
CCOC(=O)c1c(C)[nH]c2c1-c1ccccc1C(=O)C2=O	46.9
COc1ccc(C(=O)Nc2ccc(N3CCC(C)CC3)cc2)cc1Br	-5.4
Cc1ccc(COc2ccc(/C=N/NC(=O)CN3CCCCC3)cc2)cc1	0.04
CCC(C(=O)Nc1ccc2c(c1)OCCO2)c1ccccc1 (centres undefined)	-3.34
COc1cccc(/C=C/C(=O)Nc2ccc3c(c2)OCCO3)c1	19.1
c1ccc2c(c1)OCC(CNc1ncnc3nc[nH]c13)O2 (centres undefined)	5.51
CC(C)Oc1ccc(Cc2n[nH]c(=S)n2Cc2ccccc2)cc1Cl	66.9
O=C(N/N=C/C=C/c1ccco1)c1cccs1	-12.2
